- test-summary: clinical
- condition-parameters: human, in vivo, inhaled or intranasal, 17.1 mg, mean residence time in plasma, range, 17.1 mg inhaled
recorded-endpoint: MRT

Data request: Input O=C([O-])c1cc(=O)c2c(OCC(O)COc3cccc4oc(C(=O)[O-])cc(=O)c34)cccc2o1.[Na+].[Na+] [cromolyn sodium] , output reported MRT.
Data returned: 0.79 to 12.1 h

---

- test-summary: clinical
- condition-parameters: human, in vivo, inhaled or intranasal, half-life of clearance from plasma, inhaled
recorded-endpoint: half-life (min)
Could you give me the number in min? Just the number is fine.

Data request: Input O=C([O-])c1cc(=O)c2c(OCC(O)COc3cccc4oc(C(=O)[O-])cc(=O)c34)cccc2o1.[Na+].[Na+] [cromolyn sodium] , output reported half-life.
Data returned: 105
